Exercise: for every item that follows, state its recorded human MASP1 IC50.
# assay.system: T1, recombinant human MASP1 active protease (amino acids 297-699, C-terminal His Tag) (human, UniProt P48740 297-699)
# T1 sequence: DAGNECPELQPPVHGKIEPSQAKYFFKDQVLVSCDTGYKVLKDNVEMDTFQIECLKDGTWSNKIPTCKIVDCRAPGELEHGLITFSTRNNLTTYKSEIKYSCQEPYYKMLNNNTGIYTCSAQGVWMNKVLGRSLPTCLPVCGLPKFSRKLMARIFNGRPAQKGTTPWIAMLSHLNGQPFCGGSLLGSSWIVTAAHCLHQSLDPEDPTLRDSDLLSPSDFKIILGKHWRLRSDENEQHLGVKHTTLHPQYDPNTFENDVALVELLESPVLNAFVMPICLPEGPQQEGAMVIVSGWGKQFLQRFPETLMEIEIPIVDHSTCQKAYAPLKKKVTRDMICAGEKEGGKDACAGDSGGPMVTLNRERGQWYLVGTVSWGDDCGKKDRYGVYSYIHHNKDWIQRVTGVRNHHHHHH
# assay.details: cell-based or functional assay
Bridge positions count the residues as written; N and C are the ends. Square brackets hold non-standard residues; d marks the D form. Ends that are not written are not given here. Pro(4-spirocPr) = O=C(O)[C@@H]1CC2(CC2)CN1; Oic = O=C(O)[C@@H]1C[C@@H]2CCCC[C@@H]2N1; tBuAla = CC(C)(C)C[C@H](N)C(=O)O; Pen = CC(C)(S)[C@H](N)C(=O)O; NMeC = CN[C@@H](CS)C(=O)O; Pip = O=C(O)[C@@H]1CCCCN1; Sar = CNCC(=O)O
# answer = value followed by unit

Consider the binder shown here: [Sar]ICSRSLP[Oic]I[Pen]IP[PEG4‑CH2CO2H (15 atoms)]-NH2 (disulfide 3-11) [((N-Me)G)-IC+SRSLP-(Oic)-I-(Pen)+IP-(PEG4-CH2CO2H (15 atoms))-NH2] What is its recorded human MASP1 IC50?
2.9 nM

Fill in: human MASP1 IC50 of AICSRS[tBuAla]P[Pro(4-spirocPr)]I[NMeC]IPD-NH2 (disulfide 3-11; N-terminus assumed; SMILES CC[C@H](C)[C@H](NC(=O)[C@H](C)N)C(=O)N[C@H]1CSSC[C@@H](C(=O)N[C@H](C(=O)N2CCC[C@H]2C(=O)N[C@@H](CC(=O)O)C(N)=O)[C@@H](C)CC)N(C)C(=O)[C@H]([C@@H](C)CC)NC(=O)[C@@H]2CC3(CC3)CN2C(=O)[C@@H]2CCCN2C(=O)[C@H](CC(C)(C)C)NC(=O)[C@H](CO)NC(=O)[C@H](CCCNC(=N)N)NC(=O)[C@H](CO)NC1=O) [AIC+SRS-((tBu)A)-P-((6S)-5-Azaspiro[2.4]heptane-6-carboxylic acid)-I-((N-Me)C)+IPD-NH2] is ___
1.8 nM

Which human MASP1 IC50 is reported for this binder? [Pip]ICSRS[tBuAla]PPI[NMeC]IPD-NH2 (disulfide 3-11; N-terminus assumed; SMILES CC[C@H](C)[C@H](NC(=O)[C@@H]1CCCCN1)C(=O)N[C@H]1CSSC[C@@H](C(=O)N[C@H](C(=O)N2CCC[C@H]2C(=O)N[C@@H](CC(=O)O)C(N)=O)[C@@H](C)CC)N(C)C(=O)[C@H]([C@@H](C)CC)NC(=O)[C@@H]2CCCN2C(=O)[C@@H]2CCCN2C(=O)[C@H](CC(C)(C)C)NC(=O)[C@H](CO)NC(=O)[C@H](CCCNC(=N)N)NC(=O)[C@H](CO)NC1=O) [(Pip)-IC+SRS-((tBu)A)-PPI-((N-Me)C)+IPD-NH2]
1.9 nM
